- target-or-system: xanthine oxidase (Homo sapiens (Human))
- Sequence (P47989 whole entry, species assumed): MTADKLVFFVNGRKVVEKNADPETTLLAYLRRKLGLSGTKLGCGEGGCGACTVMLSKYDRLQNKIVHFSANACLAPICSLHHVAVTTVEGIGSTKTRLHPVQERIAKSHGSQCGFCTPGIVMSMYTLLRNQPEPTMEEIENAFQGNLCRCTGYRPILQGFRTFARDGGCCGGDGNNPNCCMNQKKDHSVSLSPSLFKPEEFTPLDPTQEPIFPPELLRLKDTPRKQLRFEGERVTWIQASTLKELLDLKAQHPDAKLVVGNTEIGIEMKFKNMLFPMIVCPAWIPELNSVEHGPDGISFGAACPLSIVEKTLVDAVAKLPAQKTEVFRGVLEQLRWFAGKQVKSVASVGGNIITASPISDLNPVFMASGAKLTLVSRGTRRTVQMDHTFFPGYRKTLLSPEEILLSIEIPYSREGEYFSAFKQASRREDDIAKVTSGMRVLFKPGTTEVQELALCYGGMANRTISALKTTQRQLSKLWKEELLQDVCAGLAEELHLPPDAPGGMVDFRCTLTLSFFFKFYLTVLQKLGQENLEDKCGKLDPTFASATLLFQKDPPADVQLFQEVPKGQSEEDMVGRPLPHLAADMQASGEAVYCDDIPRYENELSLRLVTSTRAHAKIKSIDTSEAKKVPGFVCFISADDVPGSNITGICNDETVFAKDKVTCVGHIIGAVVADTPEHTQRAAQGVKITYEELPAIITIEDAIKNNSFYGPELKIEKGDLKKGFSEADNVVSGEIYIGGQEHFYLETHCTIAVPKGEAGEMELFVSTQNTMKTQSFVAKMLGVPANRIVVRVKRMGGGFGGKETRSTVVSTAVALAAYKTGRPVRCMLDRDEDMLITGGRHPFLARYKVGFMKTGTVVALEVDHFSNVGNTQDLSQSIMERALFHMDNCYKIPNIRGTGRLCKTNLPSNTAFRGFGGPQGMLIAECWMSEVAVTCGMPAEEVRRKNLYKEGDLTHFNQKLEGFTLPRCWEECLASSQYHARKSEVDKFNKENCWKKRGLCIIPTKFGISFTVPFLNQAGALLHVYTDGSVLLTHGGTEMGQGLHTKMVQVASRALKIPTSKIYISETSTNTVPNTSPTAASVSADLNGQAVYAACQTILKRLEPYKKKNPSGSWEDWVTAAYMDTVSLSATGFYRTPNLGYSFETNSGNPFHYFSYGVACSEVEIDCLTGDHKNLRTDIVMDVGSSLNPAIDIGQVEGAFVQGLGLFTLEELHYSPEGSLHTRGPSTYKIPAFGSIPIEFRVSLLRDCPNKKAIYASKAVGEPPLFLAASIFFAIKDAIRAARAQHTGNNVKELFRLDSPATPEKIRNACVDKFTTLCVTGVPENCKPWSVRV
- assay-text: Fluorescence-based xanthine oxidase activity assay
- Assay type: biochemical
- condition-parameters: triplicate, 10 concentrations
measure-name: IC50

>>> meas_value("O=C(Nc1ccccc1)c1c(O)[nH]c(=O)[nH]c1=O")
"> 300 µM"
>>> meas_value("O=C(Nc1ccc(O)cc1)c1c(O)[nH]c(=S)[nH]c1=O [4′-hydroxymerbarone]")
"0.68 µM"
>>> meas_value("O=C1NC(=S)NC(=O)C1C(=O)Nc1ccccc1 [Merbarone, reference compound]")
"274 µM"
>>> meas_value("O=C(Nc1ccc(O)cc1)c1c(O)[nH]c(=O)[nH]c1=O [4′-hydroxy-2-oxo-desthiomerbarone]")
"1.06 µM"
